assay: qHTS Screen for Compounds that Selectively Target Cancer Cells with p53 Mutations: Cytotoxicity of p53 Null Cells at the Permissive Temperature; conditions: H1299-neo p53 null cells, ATP luminescence, 24 h, 32C; series mostly up to 46.1 µM; note: nearly all actives have a fitted effect of over 55% in size
Hit rate of the full screen: of about 55,000 compounds, about 340 (0.62%) were called active. Roughly 3% stayed inconclusive and do not appear here. Calls come from the whole dose curve; as a rule, active = well fitted cell-killing curve with a large enough effect; inconclusive = small, poorly fitted or top-dose-only effect; inactive = no such curve, though single readings can be large or run the other way. The list comes from a sample in which actives are over-represented; it also holds close analogues and randomly drawn compounds.
Form entry, call: pick from active, inactive

A selection of reference data follows.
COc1ccc(-c2cc3ccc(OCc4nn[nH]n4)cc3oc2=O)cc1: active
CCCCn1c(=O)c2oc3ccccc3c2n(CC(=O)Nc2ccccc2OC)c1=O: inactive
Cc1cccc(C)c1-n1ncc(C(=O)NCCCN2CCCCC2)c1C1CCN(C(=O)OC(C)(C)C)CC1: inactive
COc1ccc(NC(=O)Nc2cccc(-c3noc(C)n3)c2)cc1: inactive
COc1cc(C(=O)Nc2ccc(OCc3cc(=O)n4cc(C)sc4n3)cc2)cc(OC)c1OC: inactive
CCNC(=S)N1CCC(c2nc3cc(C)c(C)cc3[nH]2)CC1: inactive
COc1ccc2oc(=O)c(-c3cn4c(n3)sc3cc(OC)ccc34)cc2c1: inactive
O=C(Cc1c[nH]c2ccccc12)N/N=C/c1cccc(F)c1: inactive

Query: Write down the call the test reported for this compound. Item: CCCCC1N2CC3([N+](=O)[O-])CN1CC([N+](=O)[O-])(C2)C3(C)C (stereo not given)
Result: inactive

Query: Write down the call the test reported for this compound. Item: O=C(COc1nc2ccccc2nc1N1CCOCC1)NCC(F)(F)F
Result: inactive

---

assay: qHTS Screen for Compounds that Selectively Target Cancer Cells with p53 Mutations: Cytotoxicity of p53 Null Cells at the Permissive Temperature; conditions: H1299-neo p53 null cells, ATP luminescence, 24 h, 32C; series mostly up to 46.1 µM; note: nearly all actives have a fitted effect of over 55% in size
Hit rate of the full screen: of about 55,000 compounds, about 340 (0.62%) were called active. Not shown: some 3% with an inconclusive outcome. The call rests on the fitted dose curve; in most records, active means well fitted cell-killing curve with a large enough effect; inconclusive means small, poorly fitted or top-dose-only effect; inactive means no such curve, though single readings can be large or run the other way. Many of the other results were omitted from the sample, so actives are more common in it than they were.
Form entry, call: pick from true (active), false (inactive)

CCOC(=O)CN1C(C(=O)c2ccccc2)=C(OC(=O)C(C)(C)C)c2ccccc2S1(=O)=O: false
Cn1c(=NC(=O)c2ccc3c(c2)OCCO3)sc2cc(S(C)(=O)=O)ccc21: false
CCN(Cc1ccccc1)C(=O)c1cn(-c2cccc(OC)c2)c(=O)c2ccccc12: false
O=C(Nc1nc2c(s1)CCCC2)c1ccccc1F: true
Cc1ccc(NC(=S)N2CCN(c3ncccn3)CC2)cc1C: false
N#C/C(=C\c1ccccc1F)c1nc2ccccc2c(=O)[nH]1: false

Query: Write down the call the test reported for this compound. Item: Cc1ccccc1NC(=O)c1c(NC(=O)c2ccccc2F)sc2c1CCC(C)C2 (configuration not stated)
Result: false

Query: Write down the call the test reported for this compound. Item: CCC(=O)Nc1ccc(C)cc1-c1nc2ccccc2n(Cc2ccccc2)c1=O
Result: false

Query: Write down the call the test reported for this compound. Item: CN(C)CCCO/N=C(\c1ccccc1)c1ccncc1
Result: false

Query: Write down the call the test reported for this compound. Item: Brc1ccc(-c2noc(-c3ccccc3)n2)o1
Result: false

Query: Write down the call the test reported for this compound. Item: O=C(NC1CC(=O)N(c2ccc(Cl)cc2)C1)C1CCCC1 (configuration not stated)
Result: false

---

assay: qHTS Screen for Compounds that Selectively Target Cancer Cells with p53 Mutations: Cytotoxicity of p53 Null Cells at the Permissive Temperature; settings: H1299-neo p53 null cells, ATP luminescence, 24 h, 32C; series mostly up to 46.1 µM; note: nearly all actives have a fitted effect of over 55% in size
Out of some 55,000 compounds screened, about 340 (0.62%) were called active. Another 3% or so got no clear call; they are omitted. Calls come from the whole dose curve; as a rule, active = well fitted cell-killing curve with a large enough effect; inconclusive = small, poorly fitted or top-dose-only effect; inactive = no such curve, though single readings can be large or run the other way. The full list was thinned out, with actives kept by preference.
Form entry, call: pick from active, inactive

A selection of reference data follows.
COc1ccc(CCNC(=O)c2cc(=O)c3c(C)cc(C)cc3o2)cc1OC: inactive
COc1ccc(CNC(=O)c2ccc3c(O)c(S(=O)(=O)c4ccccc4)c(=O)[nH]c3c2)cc1: inactive
CC(C)C(=O)Nc1cccc(NC(=O)c2ccc([N+](=O)[O-])cc2Cl)c1: inactive
O=S(=O)(c1ccc(Br)cc1)c1nnn2c1nc(N1CCOCC1)c1sccc12: inactive
CC(=O)c1cccc(NC(=O)CSc2nc3c(c(=O)[nH]2)CCC3)c1: inactive

Query: Write down the call the test reported for this molecule. Item: COC(=O)c1ccc(NC(=O)CSc2nncc3ccc(OC)c(OC)c23)cc1
Result: inactive

Query: Write down the call the test reported for this molecule. Item: Cc1cc(SCC(=O)NCCN2C(=O)CSC2=O)nc2ccccc12
Result: inactive

Query: Write down the call the test reported for this molecule. Item: O=C(CC1N=C2c3ccccc3N=C(SCc3ccc(F)cc3)N2C1=O)NCc1cccs1 (stereo not given)
Result: inactive

---

assay: qHTS Screen for Compounds that Selectively Target Cancer Cells with p53 Mutations: Cytotoxicity of p53 Null Cells at the Permissive Temperature; conditions: H1299-neo p53 null cells, ATP luminescence, 24 h, 32C; series mostly up to 46.1 µM; note: nearly all actives have a fitted effect of over 55% in size
Hit rate of the full screen: of about 55,000 compounds, about 340 (0.62%) were called active. Roughly 3% stayed inconclusive and do not appear here. Calls follow the shape of the dose curve; as a rule, active = well fitted cell-killing curve with a large enough effect; inconclusive = small, poorly fitted or top-dose-only effect; inactive = no such curve, though single readings can be large or run the other way. This is one part of a sample in which actives are shown more often than they occur.
Form entry, call: pick from 1 for active, 0 for inactive

CCCN(CCC)c1c([N+](=O)[O-])c(=O)oc2ccccc12: 0

Query: Write down the call the test reported for this molecule. Item: CCOc1ccccc1NC(=O)C1CCCN(S(=O)(=O)c2cn(C)cn2)C1 (stereo unspecified)
Result: 0

Query: Write down the call the test reported for this molecule. Item: Cc1c(NC(=O)C(C)(C)C)cccc1-c1nc2ccccc2s1
Result: 1

Query: Write down the call the test reported for this molecule. Item: COc1cccc(CNC(=O)C(NS(=O)(=O)c2ccc3nc(C)sc3c2)C(C)C)c1 (stereo unspecified)
Result: 0

Query: Write down the call the test reported for this molecule. Item: CCOC(=O)c1c(/N=C/c2cc(C)ccc2O)sc2c1CCC2
Result: 0

Query: Write down the call the test reported for this molecule. Item: CCC(=O)NCc1cc(-c2nn(C)c(=O)c3ccccc23)ccc1OC
Result: 0

---

test: qHTS Screen for Compounds that Selectively Target Cancer Cells with p53 Mutations: Cytotoxicity of p53 Null Cells at the Permissive Temperature; conditions: H1299-neo p53 null cells, ATP luminescence, 24 h, 32C; series mostly up to 46.1 µM; note: nearly all actives have a fitted effect of over 55% in size
The whole screen tested about 55,000 compounds, of which about 340 (0.62%) were called active. Not shown: some 3% with an inconclusive outcome. Calls follow the shape of the dose curve; as a rule, active = well fitted cell-killing curve with a large enough effect; inconclusive = small, poorly fitted or top-dose-only effect; inactive = no such curve, though single readings can be large or run the other way. This is one part of a sample in which actives are shown more often than they occur.
Form entry, call: pick from active, inactive

O=C(Cn1cnc2c(oc3ccccc32)c1=O)Nc1ccc(OC(F)(F)F)cc1: inactive
Cn1c(=O)cc(OCC(=O)N2CCN(c3ccccc3F)CC2)c2ccccc21: inactive
CC(C)(C)c1ccc(C(=O)NCC(=O)OCN2C(=O)c3ccccc3C2=O)cc1: inactive
CCc1nc2ccc(C(=O)N3CCN(c4cc(Cl)ccc4C)CC3)cc2nc1CC: inactive

Query: Write down the call the test reported for this molecule. Item: O=c1c(Cl)c(NCc2ccc(F)cc2Cl)cnn1C12CC3CC(CC(C3)C1)C2
Result: inactive

Query: Write down the call the test reported for this molecule. Item: COC(=O)/C(NC(C)=O)=C(\C)c1ccc(Cl)cc1
Result: inactive

Query: Write down the call the test reported for this molecule. Item: COc1ccccc1N1CCN(C(=O)C2CCN(S(=O)(=O)c3c(C)noc3/C=C/c3ccc(C)cc3)CC2)CC1
Result: inactive

Query: Write down the call the test reported for this molecule. Item: COc1ccc(CCN2C(=O)C3CC=C(C)CC3C2=O)cc1OC (stereo unspecified)
Result: inactive

Query: Write down the call the test reported for this molecule. Item: CCCC(=O)Nc1ccc2oc(-c3ccc(O)c(Br)c3)nc2c1
Result: inactive

Query: Write down the call the test reported for this molecule. Item: Cc1ccc(CSc2nc3cccnc3n2Cc2ccc(C(=O)NC3CC3)cc2)cc1
Result: active

Query: Write down the call the test reported for this molecule. Item: CCCCOc1ccc(Cn2c(=O)oc3ccc(C)cc32)cc1OC
Result: inactive

Query: Write down the call the test reported for this molecule. Item: COc1ccc(-c2cc(C(=O)Nc3sc4c(c3C(N)=O)CCCC4)no2)cc1
Result: inactive

Query: Write down the call the test reported for this molecule. Item: O=C(NC1CCCCC1)c1ccc(Cn2c(SCc3ccccc3)nc3cccnc32)cc1
Result: inactive

Query: Write down the call the test reported for this molecule. Item: Cc1ccc(CNC(=O)CCC(=O)N2CC(C)Sc3ccccc32)cc1 (stereo unspecified)
Result: inactive

Query: Write down the call the test reported for this molecule. Item: CC(C)C(OC(=O)c1cccs1)C(=O)NC1CCCCC1 (stereo unspecified)
Result: inactive

Query: Write down the call the test reported for this molecule. Item: Cc1ccc(CN2CCC(CNC(=O)c3cnn(-c4ccccc4Cl)c3C3CCN(C(=O)OC(C)(C)C)CC3)CC2)cc1
Result: inactive

Query: Write down the call the test reported for this molecule. Item: CCOc1ccc(NC(=O)CN2CCN(CC(=O)Nc3ccc(OC)cc3)CC2)cc1
Result: inactive

Query: Write down the call the test reported for this molecule. Item: CCOc1ccccc1C(=O)Nc1ccc(S(=O)(=O)N2CCCCC2c2cccnc2)cc1 (stereo unspecified)
Result: inactive

Query: Write down the call the test reported for this molecule. Item: CCOC(=O)c1cccc(NS(=O)(=O)c2cn(C)c(C)n2)c1
Result: inactive

Query: Write down the call the test reported for this molecule. Item: COc1ccc(N2CCN(c3nc(-c4ccccc4F)nc4ccccc34)CC2)cc1
Result: inactive

Query: Write down the call the test reported for this molecule. Item: CCOC(=O)NC(=O)CSc1nnc(SCCC(=O)O)s1
Result: inactive
